experiment: photoluminescence quantum yield (fraction); solvent given as SMILES; details: in CC#N
Classification field: enter met for photoluminescence quantum yield values not below 0.4, not met for values below it.

> print(dat)
                                         mol  label.value
 1  O=C(c1ccc(N(c2ccccc2)c2ccccc2)cc1)[C@H]1[C@H](c2ccc(F)cc2)C[C@](O)(c2ccccn2)C[C@]1(O)c1ccccn1      not met
 2            O=C(O)c1ccc2ccc3cccc4ccc1c2c34      not met
 3  F[B-]1(F)n2c(c(-c3cccs3)c3c2-c2ccccc2CC3)C=C2C(c3cccs3)=C3CCc4ccccc4C3=[N+]21          met
 4  c1cc2c3c(cccc3c1)C(N1CCOCCOCCN(C3=Nc4cccc5cccc3c45)CCOCC1)=N2      not met
 5  CN(C)c1ccc(C2=Cc3c4ccccc4cc[n+]3[B-](F)(F)O2)cc1          met
 6         COc1ccc(-c2cc3c(ccc(=O)n3C)s2)cc1          met
 7  O=[N+]([O-])c1ccc(/C=C/c2c[nH]c3ccccc23)cc1      not met
 8                      COc1ccc(-n2cccc2)cc1      not met
 9  F[B-]1(F)n2c(-c3ccccc3)cnc2-c2cccc[n+]21      not met
10  F[B-]1(F)OC(c2ccc3c(c2)Cc2ccccc2-3)=CC(c2ccccc2)=[O+]1          met

###

test: photoluminescence quantum yield (fraction); solvent given as SMILES; conditions: in CCCCOCCCC
photoluminescence quantum yield by entry:
readout_type: photoluminescence quantum yield

> print(dat)
                                         mol  result
 1  COc1nc(Nc2ccc3c4c(cccc24)C(=O)c2ccccc2-3)nc(OC)n1    0.22
 2  O=C1NC(=O)C(c2c[nH]c3ccccc23)=C1c1c[nH]c2ccccc12    0.22
 3               Nc1cc2ccc3cccc4ccc(c1)c2c34    0.19
 4         Nc1ccc2c3cccc4cccc(c5cccc1c52)c43    0.24
 5  Clc1nc(Nc2ccccc2)nc(Nc2ccc3cc4ccccc4cc3c2)n1    0.35
 6  c1ccc(-c2nn(-c3ccccc3)c3nc4ccc(-n5c6ccccc6c6ccccc65)cc4cc23)cc1     0.7
 7  CCCCCCCCC1(CCCCCCCC)c2ccccc2-c2ccc(N(c3ccc(-n4c5ccccc5c5ccccc54)cc3)c3ccc4c(c3)C(CCCCCCCC)(CCCCCCCC)c3ccccc3-4)cc21    0.25
 8     COc1nc(Cl)nc(Nc2ccc3cc4ccccc4cc3c2)n1    0.25
 9  CN(C)c1ccc2nc3c(cc2c1)c(-c1ccccc1)nn3-c1ccccc1    0.77
10                 Cn1cccc1-c1cc(C#N)ccc1C#N   0.281

###

experiment: photoluminescence quantum yield (fraction); solvent given as SMILES; details: in CC1CCCCC1
readout_type: photoluminescence quantum yield

> print(dat)
                                    compound  numeric.readout
 1  C(=C\c1c2ccccc2cc2ccccc12)/c1cccc2ccccc12             0.43
 2  CN(C)c1ccc(C2=Cc3c4ccccc4cc[n+]3[B-](F)(F)O2)cc1            0.979
 3  CCOc1ccc(/C=C/C=C/C=C/c2ccc([N+](=O)[O-])cc2)cc1             0.22
 4                         c1cc(N2CCCC2)ccn1             0.09
 5  CN(C)c1ccc(/C=C/c2nc3c4ccccc4c4ccccc4c3[nH]2)cc1            0.195
 6            O=c1oc2ccccc2cc1-c1nc2ccccc2o1             0.94
 7  COC(=O)C(NC(=O)OC(C)(C)C)c1ccc2oc(-c3cc(OC)ccc3OC)nc2c1 (stereo not given)             0.51
 8  COC(=O)C(NC(=O)OC(C)(C)C)c1ccc2oc(-c3cccc(Oc4ccccc4)c3)nc2c1 (stereo not given)              0.5
 9  CN(C)c1ccc(C2=Cc3ccc4ccccc4[n+]3[B-](F)(F)O2)cc1            0.862
10  CCCCOc1ccc(/C=C/C=C/C=C/c2ccc([N+](=O)[O-])cc2)cc1             0.25

###

experiment: photoluminescence quantum yield (fraction); solvent given as SMILES; conditions: in Cc1ccccc1

compound	photoluminescence quantum yield
Cc1ccc2c(c1)C(=O)c1ccncc1-2	0.031
CCn1c2ccccc2c2cc(/C=C3\C(=O)c4ccccc4S3(=O)=O)ccc21	0.014
N#Cc1cc(C#N)cc(-n2c3ccccc3c3cc(-c4ccc5c(c4)c4ccccc4n5-c4cc(C#N)cc(C#N)c4)ccc32)c1	0.5
CCCCCCCCCCCCC(CCCCCCCCCC)Cn1c2cc(C=C(C#N)C#N)c3cccc4c5cccc6c(C=C(C#N)C#N)cc1c(c65)c2c34 (centres undefined)	0.138
Cc1nc(-c2ccc(-n3c4ccccc4c4ccccc43)cc2)cc(-c2ccc(-n3c4ccccc4c4ccccc43)cc2)n1	0.65
CC1(C)c2ccccc2N(c2ccc(-c3ccc(C#N)cc3)cc2)c2ccccc21	0.178
CN(C)c1ccc(-c2nc3c(c4c2-c2ccccc2CC4)-c2ccccc2CC3)cc1	0.112
N#Cc1ccc(-n2c3ccccc3c3c2c2ccccc2n3-c2ccccc2)cc1	0.143
CC(C)CCC[C@@H](C)[C@H]1CC[C@H]2[C@@H]3CC=C4C[C@@H](OC(=O)Oc5cc(/C=C/c6ccc(N(C)C)cc6)ccc5[N+](=O)[O-])CC[C@]4(C)[C@H]3CC[C@]12C	0.18

###

Catalogue of photoluminescence quantum yield readings, one per entry.
assay: photoluminescence quantum yield (fraction); solvent given as SMILES; conditions: in CC(C)=O
readout_type: photoluminescence quantum yield

> print(dat)
                                        mol                     readout.type  numeric.readout
1         c1csc(-c2cnc(-c3cccs3)c3nonc23)c1  photoluminescence quantum yield             0.39
2  CCC1=C(C)C2=Cc3cc(I)c(I)n3[B-](F)(F)[N+]2=C1C  photoluminescence quantum yield             0.16
3  CN(C)c1ccc2nc3c(cc2c1)c(-c1ccccc1)nn3-c1ccccc1  photoluminescence quantum yield             0.58
4  CCCCCCCCC1(CCCCCCCC)c2cc(C=O)ccc2-c2ccc(/C=C/c3ccc(N(c4ccccc4)c4ccccc4)cc3)cc21  photoluminescence quantum yield             0.33
5         Nc1ccc2c3cccc4cccc(c5cccc1c52)c43  photoluminescence quantum yield              0.5

###

assay: photoluminescence quantum yield (fraction); solvent given as SMILES; conditions: in CC(C)CO
readout_type: photoluminescence quantum yield

> print(dat)
                                        mol  result
1  COCCOCCOCCOCCOc1ccc(OCCOCCOCCOCCOC)c(C=O)c1    0.29
2  COCCOCCOCCOc1cc(C=O)c(OCCOCCOCCOC)cc1C=O    0.12
3  CC(=O)Nc1ccc(/C=C2\OC(=O)c3cc(N)ccc32)cc1   0.032
4            O=c1oc2ccccc2cc1-c1nc2ccccc2o1     0.8
5        COCCOCCOc1cc(C=O)c(OCCOCCOC)cc1C=O    0.09
6         COc1ccc(/C=C2\OC(=O)c3ccccc32)cc1    0.07
7      Nc1ccc2c(c1)C(=O)O/C2=C\c1ccc(Cl)cc1     0.2

###

A collection of compounds and their measured photoluminescence quantum yield
assay: photoluminescence quantum yield (fraction); solvent given as SMILES; details: in ClCCl
readout_type: photoluminescence quantum yield

> print(dat)
                                        mol  numeric.readout
1  CC(=O)c1ccc(-c2cccc3ncc(-c4ccccc4)n23)cc1             0.43
2  COc1cc(C)c(-c2cc(-c3c(C)cc(OC)cc3C)c3ccc4c(-c5c(C)cc(OC)cc5C)cc(-c5c(C)cc(OC)cc5C)c5ccc2c3c54)c(C)c1             0.38
3  FC(F)(F)c1ccc(/C=C/c2nc(/C=C/c3ccc(N(c4ccccc4)c4ccccc4)cc3)cc(/C=C/c3ccc(N(c4ccccc4)c4ccccc4)cc3)n2)cc1                1
4  COc1ccc(-c2nc(-c3ccccc3O)c(-c3ccccc3O)n2-c2ccc(C)cc2)cc1             0.04

###

assay: photoluminescence quantum yield (fraction); solvent given as SMILES; conditions: in C1CCOC1
readout_type: photoluminescence quantum yield

> print(dat)
                                   molecule  numeric.readout
1  CCCCCCCCC1(CCCCCCCC)c2ccccc2-c2ccc(N(c3ccc(-n4c5ccccc5c5ccccc54)cc3)c3ccc4c(c3)C(CCCCCCCC)(CCCCCCCC)c3ccccc3-4)cc21             0.24
2  COc1cc2c(cc1-c1ccc([N+](=O)[O-])cc1)Cc1c3c(c4c(c1-2)-c1cc(OC)c(-c2ccc([N+](=O)[O-])cc2)cc1C4)C(=O)N(CCC(C)C)C3=O             0.11
3  Cc1cc(C)n2c1C=C1c3ccccc3C(c3cccn3C)=[N+]1[B-]2(F)F             0.96
4  N#Cc1ccc(/C=C/c2ccc(C=C(c3ccccc3)c3ccccc3)cc2)cc1            0.166
5  COC(=O)c1cc(=O)n(C)c2cc(-c3ccc(OC)cc3)sc12             0.99
6  COc1cc2c(cc1-c1ccc(N(C)C)cc1)Cc1c3c(c4c(c1-2)-c1cc(OC)c(-c2ccc(N(C)C)cc2)cc1C4)C(=O)N(CCC(C)C)C3=O             0.02
7  c1ccc(-p2c(-c3cccs3)cc3ccccc32)cc1 (stereo not drawn)             0.07
8          CCOC(=O)c1sc(SC)c2c(=O)[nH]nnc12           0.0075
